Data credit: the supplement of paper PMC9112550

# Test system: Escherichia coli TOP10
# assay.overview: shrunken log2 fold change of peptide-encoding DNA abundance (4.5 h post-induction vs induction); higher = less antimicrobial activity (less host growth inhibition)
# setup.conditions: time post-induction: 4.5 h; library: site-saturation at positions 5, 18, 19, 20
Attribute: shrunken log2 fold change

sequence.text	shrunken log2 fold change
RRIRCRPPRLPRPRPRPRPHPRP	0.211
RRIRGRPPRLPRPRPRPMTSPRP	0.445
RRIRARPPRLPRPRPRPQAQPRP	0.664
RRIRPRPPRLPRPRPRPYVTPRP	-0.239
RRIRRRPPRLPRPRPRPYKVPRP	-0.193
RRIRMRPPRLPRPRPRPWKDPRP	-0.0578
RRIRWRPPRLPRPRPRPCDHPRP	-0.00122
RRIRDRPPRLPRPRPRPEEYPRP	0.0208

Sample "RRIRQRPPRLPRPRPRPVAKPRP" — what was its shrunken log2 fold change?
0.2

Sample "RRIRYRPPRLPRPRPRPPKQPRP" — what was its shrunken log2 fold change?
-0.0678

Sample "RRIRTRPPRLPRPRPRPWRMPRP" — what was its shrunken log2 fold change?
-0.139

Sample "RRIRTRPPRLPRPRPRPSRAPRP" — what was its shrunken log2 fold change?
0.271

Sample "RRIRNRPPRLPRPRPRPFSFPRP" — what was its shrunken log2 fold change?
-0.186

Sample "RRIRARPPRLPRPRPRPMLPPRP" — what was its shrunken log2 fold change?
0.425

====

# System: Escherichia coli TOP10
# assay.overview: shrunken log2 fold change of peptide-encoding DNA abundance (4.5 h post-induction vs induction); higher = less antimicrobial activity (less host growth inhibition)
# setup.conditions: time post-induction: 4.5 h; library: site-saturation at positions 5, 18, 19, 20
Using shrunken log2 fold change as the sorting value, the categories are low end (below -0.1), middle (-0.1 to below 0.02), high end (0.02 or more)

Record excerpt, results attached:
sequence.text	class.label
RRIRPRPPRLPRPRPRPGCPPRP	high end
RRIRIRPPRLPRPRPRPDEHPRP	low end
RRIRRRPPRLPRPRPRPEGRPRP	high end
RRIRQRPPRLPRPRPRPQRYPRP	middle
RRIRFRPPRLPRPRPRPFPPPRP	low end
RRIRFRPPRLPRPRPRPCLIPRP	low end
RRIRARPPRLPRPRPRPHHYPRP	low end
RRIRTRPPRLPRPRPRPNQIPRP	low end

Could you place "RRIRGRPPRLPRPRPRPVRHPRP" in its proper category? Many thanks.
high end

Could you place "RRIRLRPPRLPRPRPRPVPYPRP" in its proper category? Many thanks.
low end

Could you place "RRIRHRPPRLPRPRPRPFHRPRP" in its proper category? Many thanks.
middle

Could you place "RRIRLRPPRLPRPRPRPQAWPRP" in its proper category? Many thanks.
high end

Could you place "RRIRVRPPRLPRPRPRPFTHPRP" in its proper category? Many thanks.
low end

====

# Tested on: Escherichia coli TOP10
# assay.overview: shrunken log2 fold change of peptide-encoding DNA abundance (4.5 h post-induction vs induction); higher = less antimicrobial activity (less host growth inhibition)
# setup.conditions: time post-induction: 4.5 h; library: site-saturation at positions 5, 18, 19, 20
Attribute: shrunken log2 fold change
Kindly provide the number alone.

Below, each entry is followed by its recorded shrunken log2 fold change result.
sequence.text	quantity	observed.measurement
RRIRERPPRLPRPRPRPNWWPRP	shrunken log2 fold change	0.196
RRIRARPPRLPRPRPRPEGNPRP	shrunken log2 fold change	0.295

Sample "RRIRYRPPRLPRPRPRPFYLPRP" — what was its shrunken log2 fold change?
-0.955

Sample "RRIRHRPPRLPRPRPRPMRIPRP" — what was its shrunken log2 fold change?
-0.00172

====

# System: Escherichia coli TOP10
# assay.overview: shrunken log2 fold change of peptide-encoding DNA abundance (4.5 h post-induction vs induction); higher = less antimicrobial activity (less host growth inhibition)
# setup.conditions: time post-induction: 4.5 h; library: site-saturation at positions 5, 18, 19, 20
Attribute: shrunken log2 fold change
Kindly provide the number alone.

Below, each entry is followed by its recorded shrunken log2 fold change result.
sequence.text	shrunken log2 fold change
RRIRDRPPRLPRPRPRPPSYPRP	-0.222
RRIRYRPPRLPRPRPRPRLYPRP	-0.247

Sample "RRIRPRPPRLPRPRPRPKMHPRP" — what was its shrunken log2 fold change?
0.153

Sample "RRIRGRPPRLPRPRPRPLEGPRP" — what was its shrunken log2 fold change?
0.0436

Sample "RRIRERPPRLPRPRPRPIYYPRP" — what was its shrunken log2 fold change?
-0.726

Sample "RRIRERPPRLPRPRPRPIHCPRP" — what was its shrunken log2 fold change?
-0.118

Sample "RRIRHRPPRLPRPRPRPFMFPRP" — what was its shrunken log2 fold change?
-0.66

====

Attribute: shrunken log2 fold change
# System: Escherichia coli TOP10
# assay.overview: shrunken log2 fold change of peptide-encoding DNA abundance (4.5 h post-induction vs induction); higher = less antimicrobial activity (less host growth inhibition)
# setup.conditions: time post-induction: 4.5 h; library: site-saturation at positions 5, 18, 19, 20
Kindly provide the number alone.

sequence.text	assay.target	shrunken log2 fold change
RRIRQRPPRLPRPRPRPLTIPRP	Escherichia coli TOP10	-0.375

Please turn your attention to the following entry.
Sample "RRIRHRPPRLPRPRPRPTTKPRP" — what was its shrunken log2 fold change?
0.00227

====

# System: Escherichia coli TOP10
# assay.overview: shrunken log2 fold change of peptide-encoding DNA abundance (4.5 h post-induction vs induction); higher = less antimicrobial activity (less host growth inhibition)
# setup.conditions: time post-induction: 4.5 h; library: site-saturation at positions 5, 18, 19, 20
Attribute: shrunken log2 fold change
Kindly provide the number alone.

sequence.text	assay.target	shrunken log2 fold change
RRIRPRPPRLPRPRPRPVSWPRP	Escherichia coli TOP10	0.704
RRIRQRPPRLPRPRPRPTYTPRP	Escherichia coli TOP10	-0.346
RRIRPRPPRLPRPRPRPTFMPRP	Escherichia coli TOP10	0.0861
RRIRHRPPRLPRPRPRPVNCPRP	Escherichia coli TOP10	0.00367
RRIRSRPPRLPRPRPRPWKRPRP	Escherichia coli TOP10	-0.000813
RRIRVRPPRLPRPRPRPGHPPRP	Escherichia coli TOP10	0.146
RRIRRRPPRLPRPRPRPWYMPRP	Escherichia coli TOP10	-0.0284
RRIRIRPPRLPRPRPRPSVIPRP	Escherichia coli TOP10	-0.661
RRIRMRPPRLPRPRPRPYDSPRP	Escherichia coli TOP10	0.00275
RRIRFRPPRLPRPRPRPILFPRP	Escherichia coli TOP10	-0.0517

Sample "RRIRRRPPRLPRPRPRPFWIPRP" — what was its shrunken log2 fold change?
0.0724

Sample "RRIRIRPPRLPRPRPRPMWRPRP" — what was its shrunken log2 fold change?
0.19

Sample "RRIRPRPPRLPRPRPRPCKIPRP" — what was its shrunken log2 fold change?
-0.0494

Sample "RRIRFRPPRLPRPRPRPDMQPRP" — what was its shrunken log2 fold change?
-0.313

Sample "RRIRCRPPRLPRPRPRPGPNPRP" — what was its shrunken log2 fold change?
0.296

Sample "RRIRHRPPRLPRPRPRPPLGPRP" — what was its shrunken log2 fold change?
0.25

Sample "RRIRRRPPRLPRPRPRPPYHPRP" — what was its shrunken log2 fold change?
0.124

Sample "RRIRPRPPRLPRPRPRPYLRPRP" — what was its shrunken log2 fold change?
0.0823

Sample "RRIRQRPPRLPRPRPRPGAYPRP" — what was its shrunken log2 fold change?
-0.506

Sample "RRIRIRPPRLPRPRPRPFVVPRP" — what was its shrunken log2 fold change?
-0.235

Sample "RRIRHRPPRLPRPRPRPMFMPRP" — what was its shrunken log2 fold change?
-0.256

====

# Tested on: Escherichia coli TOP10;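 further: peptides expressed intracellularly from a pBAD plasmid library in pooled LB shake-flask culture, induced with 0.3% L-arabinose, DNA abundance read by NGS, three biological replicates, DESeq2 with apeglm shrinkage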
# assay.overview: shrunken log2 fold change of peptide-encoding DNA abundance (4.5 h post-induction vs induction); higher = less antimicrobial activity (less host growth inhibition)
# setup.conditions: time post-induction: 4.5 h; library: site-saturation at positions 5, 18, 19, 20
quantity: shrunken log2 fold change
Kindly provide the number alone.

sequence.text	observed.measurement
RRIRNRPPRLPRPRPRPPNWPRP	0.217
RRIRRRPPRLPRPRPRPEKWPRP	-0.00174
RRIRARPPRLPRPRPRPYTSPRP	0.0229
RRIRARPPRLPRPRPRPIPDPRP	0.604
RRIRKRPPRLPRPRPRPFYNPRP	-0.695

API: value(readout=shrunken log2 fold change, system=Escherichia coli TOP10) for record "RRIRMRPPRLPRPRPRPIPTPRP"
0.0467

API: value(readout=shrunken log2 fold change, system=Escherichia coli TOP10) for record "RRIRGRPPRLPRPRPRPAWPPRP"
0.892

API: value(readout=shrunken log2 fold change, system=Escherichia coli TOP10) for record "RRIRWRPPRLPRPRPRPKIGPRP"
-0.0273
